Provide the recorded TGI for the entries that follow.
Tested on: T-47D breast
assay: NCI tumour cell line growth inhibition, 48 h
Your answer is read as µM, so omit the unit and give the number.

Ask | Bench note: what TGI did CC(=O)Nc1ncc2c(n1)-c1ccccc1OC2c1ccccc1 (configuration not stated) show?
Reply | 68.4

Ask | Bench note: what TGI did CCOC(=O)C1=C(C)NC(C)=C(C(=O)OCCNC(=O)c2ccc(N=[N+]=[N-])cc2)C1c1ccccc1C(F)(F)F (configuration not stated) show?
Reply | 21.5

Ask | Bench note: what TGI did CSC1=C(SC)C(=O)c2cn(C)c(=O)cc2C1=O show?
Reply | 3.99

---

System: KM12 colon
assay: NCI tumour cell line growth inhibition, 48 h
parameter measured: GI50

Ask | Param readout= GI50; system= KM12 colon; entry= O=C(CN1CCN(CCN2C(=O)c3cccc4cccc(c34)C2=O)CC1)Nc1ccc2ncsc2c1 ; returns value.
Reply | 6160 nM

Ask | Param readout= GI50; system= KM12 colon; entry= Cc1cc(I)cc(CNCCN2CCOCC2)c1O ; returns value.
Reply | 86800 nM

Ask | Param readout= GI50; system= KM12 colon; entry= CCOC(=O)Nc1ccc2nc(N3CCCCCC3)sc2c1 ; returns value.
Reply | 661 nM

Ask | Param readout= GI50; system= KM12 colon; entry= c1ccc(COCC[P+](c2ccccc2)(c2ccccc2)c2ccccc2)cc1 ; returns value.
Reply | 501 nM

Ask | Param readout= GI50; system= KM12 colon; entry= COc1cccc(CCNC(=O)CC(c2ccccc2)(c2ccccc2)c2ccccc2)c1 ; returns value.
Reply | 4750 nM

Ask | Param readout= GI50; system= KM12 colon; entry= C=C1C[C@@H](O)[C@@H](Br)C(C)(C)[C@]12CCC(C)(Br)C(Cl)C2 (stereo not given in full) ; returns value.
Reply | 280 nM

Ask | Param readout= GI50; system= KM12 colon; entry= COc1ccc(/C(=C/c2ccc3ccccc3c2)c2nn[nH]n2)cc1OC ; returns value.
Reply | 2790 nM

Ask | Param readout= GI50; system= KM12 colon; entry= CCNC(=O)Oc1ccc(/C(=C(\C)c2ccc(Cl)cc2)c2ccc(OCCN(CC)CC)cc2)cc1 ; returns value.
Reply | 4220 nM

Ask | Param readout= GI50; system= KM12 colon; entry= CNCCCn1c2c(c3ccc(Cl)cc3c1=O)C(=O)c1cc(OC)cnc1-2 ; returns value.
Reply | 1100 nM

Ask | Param readout= GI50; system= KM12 colon; entry= O=C(/C=C/c1ccco1)Nc1ncc(Cc2cccc(C(F)(F)F)c2)s1 ; returns value.
Reply | 43.2 nM

---

System: HL-60(TB) leukemia
assay: NCI tumour cell line growth inhibition, 48 h; in the data active means GI50 below about 0.43 µM; inactive means the rest
Mark one answer only. Choices: active, inactive

Ask | For CC(C)(C)[Si](C)(C)OC1[C@@H](O[Si](C)(C)C(C)(C)C)[C@@H](CNC(=O)NC(=O)NC(=O)CCl)O[C@H]1n1cnc2c(NC(=O)Nc3ccccc3)ncnc21 (stereo not given in full) , which call appears in the assay record?
Reply | inactive

Ask | For NC(=O)c1cc(I)ccc1NC(=O)/C=C/c1ccccc1Cl , which call appears in the assay record?
Reply | active

Ask | For Clc1ccc(C2CC(c3cccc(Nc4ccncc4)c3)=NN2c2ccccc2)cc1 (stereo not given) , which call appears in the assay record?
Reply | inactive

Ask | For CCC(CC)c1cc(N[C@H]2CC[C@H](N)C2)n2nccc2n1 , which call appears in the assay record?
Reply | active

Ask | For O=C(O)c1ccc(NCc2nc3ccccc3[nH]2)cc1 , which call appears in the assay record?
Reply | inactive
